Data credit: ChEMBL document CHEMBL1136896

system: Brassica napus; test: Herbicidal activity against Brassica napus L. at 1.5 kg/hectare administered preemergence of first true leaf measured after 10 days; type: functional; settings: pre-emergence, 240 h
Reported inhibition at 1500 g/ha values for a set of compounds
Reply numerically in %, unit not repeated.

The following compounds have reported results that may help.
{"columns": ["Mol smiles", "Units of measure", "inhibition at 1500 g/ha"],
 "data": [
  ["CCOCCOC(=O)/C(C#N)=C(/CC)NNc1cccc(Cl)c1Cl", "%", 0],
  ["CCOCCOC(=O)/C(C#N)=C(\\NNc1cccc(Cl)c1Cl)C(C)C", "%", 0],
  ["CCOCCOC(=O)c1c(C(C)C)nn(-c2ccccc2)c1N", "%", 15],
  ["CCOCCOC(=O)/C(C#N)=C(\\NNc1c(Cl)cc(Cl)cc1Cl)C(C)C", "%", 0]
]}

Need inhibition at 1500 g/ha, item CCOCCOC(=O)/C(C#N)=C(/CC)NNc1cc(Cl)c(Cl)cc1Cl
0

###

Reported inhibition at 50 µg/mL values for a set of compounds
test system: Cladosporium cucumerinum; assay: Fungicidal activity against Cladosporium cucumerinum assessed as inhibition of mycelium growth at 50 mg/L after 72 hrs; format: functional

The following compounds have reported results that may help.
{"columns": ["Mol smiles", "Measured attribute", "Measurement"],
 "data": [
  ["CCOCCOC(=O)c1c(SC)nn(-c2ccc(C)cc2)c1N", "inhibition at 50 µg/mL", "20%"],
  ["CCOCCOC(=O)/C(C#N)=C(\\NNc1c(Cl)cc(Cl)cc1Cl)C(C)C", "inhibition at 50 µg/mL", "8.3%"],
  ["CCOCCOC(=O)c1c(SC)nn(-c2ccc(C)cc2C)c1N", "inhibition at 50 µg/mL", "10.9%"],
  ["CCOCCOC(=O)/C(C#N)=C(/CC)NNc1c(Cl)cc(Cl)cc1Cl", "inhibition at 50 µg/mL", "22.2%"]
]}

Field: next compound
Need inhibition at 50 µg/mL, item CCOCCOC(=O)c1c(SC)nn(-c2ccc(Cl)cc2Cl)c1N
32.7%
